Ref: ChEMBL document CHEMBL1125290

tested on: Rattus norvegicus; test: Antiinflammatory activity against carrageenan induced rat paw edema (CPE), dosed orally; assay type: functional; also: test concentration or dose not given here
Reported Inhibition values for the following compounds.
Provide the reading as a plain figure in %.

Smiles: CCN(CC)CC(=O)Nc1nc2c(Cl)c3nc(NC(=O)CN(CC)CC)sc3c(-c3ccccc3)c2s1
Inhibition / %: 35

Exercise: What measured Inhibition goes with O=C(CN1CCSC1)Nc1nc2cc3nc(NC(=O)CN4CCSC4)sc3cc2s1 ?
Key: 11

Exercise: What measured Inhibition goes with CN1CCN(CC(=O)Nc2nc3cc4nc(NC(=O)CN5CCN(C)CC5)sc4cc3s2)CC1 ?
Key: 28

Exercise: What measured Inhibition goes with CCN(CC)CC(=O)Nc1nc2cc3nc(NC(=O)CN(CC)CC)sc3c([N+](=O)[O-])c2s1 ?
Key: 23

Exercise: What measured Inhibition goes with O=C(O)CNc1nc2cc3nc(NCC(=O)O)sc3cc2s1 ?
Key: 2

----------
system: Rattus norvegicus; test: Antiinflammatory activity against carrageenan induced rat paw edema (CPE), dosed orally; format: functional; also: test concentration or dose not given here
Readout Label: Inhibition (%)
Provide the reading as a plain figure in %.

The cases that follow already have their Inhibition on record.
Compound: CCN(CC)CC(=O)Nc1nc2c(C(F)(F)F)c3nc(NC(=O)CN(CC)CC)sc3c(Cl)c2s1.Cl.Cl
Target Or System: Rattus norvegicus
Readout Label: Inhibition
Endpoint Unit: %
Obs Value: 18
--
Compound: CC1CC(C)CN(CC(=O)Nc2nc3cc4nc(NC(=O)CN5CC(C)CC(C)C5)sc4cc3s2)C1 (centres undefined)
Target Or System: Rattus norvegicus
Readout Label: Inhibition
Endpoint Unit: %
Obs Value: 15
--
Compound: CCN(CC)CC(=O)Nc1nc2cc3nc(NC(=O)CN(CC)CC)sc3cc2s1
Target Or System: Rattus norvegicus
Readout Label: Inhibition
Endpoint Unit: %
Obs Value: 9

Exercise: What measured Inhibition goes with O=C(CNC1CC1)Nc1nc2cc3nc(NC(=O)CNC4CC4)sc3cc2s1 ?
Key: 18

Exercise: What measured Inhibition goes with O=C(CN1CCN(CCO)CC1)Nc1nc2cc3nc(NC(=O)CN4CCN(CCO)CC4)sc3cc2s1 ?
Key: 24

Exercise: What measured Inhibition goes with CCN(CC)CC(=O)Nc1nc2c(ccc3nc(NC(=O)CN(CC)CC)sc32)s1.Cl.Cl ?
Key: 0

Exercise: What measured Inhibition goes with CC(C)N(CC(=O)Nc1nc2cc3nc(NC(=O)CN(C(C)C)C(C)C)sc3cc2s1)C(C)C ?
Key: 0

Exercise: What measured Inhibition goes with CCCN(CCC)CC(=O)Nc1nc2cc3nc(NC(=O)CN(CCC)CCC)sc3cc2s1.Cl.Cl ?
Key: 46

Exercise: What measured Inhibition goes with CCN(CC)CC(=O)N(CC)c1nc2cc3nc(N(CC)C(=O)CN(CC)CC)sc3cc2s1 ?
Key: 18

----------
system: Rattus norvegicus; assay: Antiinflammatory activity against carrageenan induced rat paw edema (CPE), dosed orally; format: functional; also: test concentration or dose not given here
Readout Label: Inhibition (%)
Provide the reading as a plain figure in %.

Smiles: Nc1nc2cc3sc(N)nc3cc2s1
Readout Label: Inhibition
Endpoint Unit: %
Obs Value: 4
--
Smiles: CCN(CC)CC(=O)Nc1nc2c(cc(Cl)c3nc(NC(=O)CN(CC)CC)sc32)s1
Readout Label: Inhibition
Endpoint Unit: %
Obs Value: 35
--
Smiles: CCN(CC)CC(=O)Nc1nc2cc3nc(NC(=O)CN(CC)CC)sc3c(Br)c2s1
Readout Label: Inhibition
Endpoint Unit: %
Obs Value: 0
--
Smiles: CN(CC(=O)Nc1nc2cc3nc(NC(=O)CN(C)C4CCCCC4)sc3cc2s1)C1CCCCC1.Cl.Cl
Readout Label: Inhibition
Endpoint Unit: %
Obs Value: 6
--
Smiles: CCOC(=O)CN1CCN(CC(=O)Nc2nc3cc4nc(NC(=O)CN5CCN(CC(=O)OCC)CC5)sc4cc3s2)CC1
Readout Label: Inhibition
Endpoint Unit: %
Obs Value: 14

Exercise: What measured Inhibition goes with CN(CC(=O)Nc1nc2cc3nc(NC(=O)CN(C)C4CCCCCCC4)sc3cc2s1)C1CCCCCCC1 ?
Key: 0

Exercise: What measured Inhibition goes with Cc1c2nc(N)sc2c(C(=O)[O-])c2sc(N)nc12.[Na+] ?
Key: 22

Exercise: What measured Inhibition goes with O=C(CN1CCC(Cc2ccccc2)CC1)Nc1nc2cc3nc(NC(=O)CN4CCC(Cc5ccccc5)CC4)sc3cc2s1 ?
Key: 9

Exercise: What measured Inhibition goes with CCNCC(=O)Nc1nc2cc3nc(NC(=O)CNCC)sc3cc2s1.Cl.Cl ?
Key: 21
